assay: cells; type: functional
Activity calls are given as the source filed them.
readoutLabel: IC50

Solved entries:
compound	IC50
Clc1ccc(-c2ccc(CNCc3ccccn3)o2)cc1	3.21 µM (active)
COc1ccc(/C=N/Nc2cc(C)nc(-n3nc(C)cc3C)n2)cc1	< 0.1 µM (active)
CCOc1ccc(C(=O)Nc2nnc(C3=COCCO3)o2)cc1	3.65 µM (active)
COc1ccc(OC(=O)c2cc3cc(Cl)ccc3oc2=O)cc1	7.33 µM (active)
O=C(OCn1ncc(Br)c(Br)c1=O)c1ccccc1Cl	3.24 µM (active)

Lab note: next compound to report on.
Task: Need IC50 of Cc1cc(C)n(CC(=O)N/N=C/c2ccc([N+](=O)[O-])s2)n1 , thanks.
Result: 48.5 µM (active)

---

target: UniProt P11712
Sequence (P11712 whole entry): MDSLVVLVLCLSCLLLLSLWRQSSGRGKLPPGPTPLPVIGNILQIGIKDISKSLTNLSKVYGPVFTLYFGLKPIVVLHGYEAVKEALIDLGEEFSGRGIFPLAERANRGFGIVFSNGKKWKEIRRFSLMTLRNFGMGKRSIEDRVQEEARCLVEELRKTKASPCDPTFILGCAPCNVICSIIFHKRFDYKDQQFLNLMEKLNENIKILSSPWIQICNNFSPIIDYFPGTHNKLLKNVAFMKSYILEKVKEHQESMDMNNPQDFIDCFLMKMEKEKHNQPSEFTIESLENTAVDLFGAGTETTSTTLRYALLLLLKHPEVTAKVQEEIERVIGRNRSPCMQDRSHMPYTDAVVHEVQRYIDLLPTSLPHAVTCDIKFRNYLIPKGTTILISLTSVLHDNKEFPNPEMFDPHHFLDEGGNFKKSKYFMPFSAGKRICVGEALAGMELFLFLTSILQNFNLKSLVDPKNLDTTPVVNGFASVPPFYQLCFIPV
readoutLabel: AC50

Task: Item: CCNc1ncc2nc(-c3cccs3)c(=O)n(Cc3ccc(F)cc3)c2n1 Test system: UniProt P11712 Read-out: AC50 Value: ?
Result: 31.6 µM (inconclusive)

Task: Item: Cc1cnc(NC(=O)CSc2ccc(Cl)cc2)s1 Test system: UniProt P11712 Read-out: AC50 Value: ?
Result: 20 µM (inconclusive)

Task: Item: COC(=O)C1C(O)=C(/C=N/Cc2ccccc2)C(=O)CC1(C)C (stereo unspecified) Test system: UniProt P11712 Read-out: AC50 Value: ?
Result: 14.1 µM (inconclusive)

Task: Item: CC(=O)N1CCN(c2ccc(NC(=O)c3ccc(C)cc3)cc2)CC1 Test system: UniProt P11712 Read-out: AC50 Value: ?
Result: 39.8 µM (inconclusive)

Task: Item: COc1ccc(-n2c(SC)nc(O)c(Cc3ccccc3)c2=O)cc1 Test system: UniProt P11712 Read-out: AC50 Value: ?
Result: 12.6 µM (inconclusive)

---

molecular target: Glucose-6-phosphate 1-dehydrogenase (Homo sapiens); assay: inhibition of Homo sapiens G6PD, dose series – biochemical, fluorescence, selectivity assay for P. falciparum G6PD inhibitor project, dose response (AID 504792); format: functional
Sequence (P11413 whole entry): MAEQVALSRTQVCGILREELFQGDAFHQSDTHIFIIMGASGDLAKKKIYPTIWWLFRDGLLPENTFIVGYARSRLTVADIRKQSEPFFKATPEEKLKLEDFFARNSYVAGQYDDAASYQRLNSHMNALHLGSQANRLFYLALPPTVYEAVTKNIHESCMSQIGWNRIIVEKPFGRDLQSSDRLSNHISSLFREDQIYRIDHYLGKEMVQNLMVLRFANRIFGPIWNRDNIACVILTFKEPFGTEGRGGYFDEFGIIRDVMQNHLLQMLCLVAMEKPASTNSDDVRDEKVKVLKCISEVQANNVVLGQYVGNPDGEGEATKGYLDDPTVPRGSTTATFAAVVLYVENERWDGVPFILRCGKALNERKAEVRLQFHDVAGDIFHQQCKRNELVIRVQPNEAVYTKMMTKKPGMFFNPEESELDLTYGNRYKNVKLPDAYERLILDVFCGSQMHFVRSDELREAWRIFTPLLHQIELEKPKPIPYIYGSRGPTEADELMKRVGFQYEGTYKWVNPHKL
The source made the active and inactive calls.
Below, each entry is listed with its recorded IC50.

Solved entries:
compound	assaySystem	IC50
CC1=C(O)C(=O)C=C2C1=CC=C1C2(C)CCC2(C)C3CC(C)(C(=O)O)CCC3(C)CCC12C (stereo unspecified)	Glucose-6-phosphate 1-dehydrogenase (Homo sapiens)	> 80 µM (inactive)
O=C1C=CC(=O)N1c1ccc2c(c1)C(NC(=O)C(F)(F)F)c1ccccc1-2 (stereo unspecified)	Glucose-6-phosphate 1-dehydrogenase (Homo sapiens)	> 80 µM (inactive)
N#Cc1c(C#N)c(SSc2c(C#N)c(C#N)c(N)n2-c2ccccc2)n(-c2ccccc2)c1N	Glucose-6-phosphate 1-dehydrogenase (Homo sapiens)	> 80 µM (inactive)
O=c1c2ccccc2sn1-c1ccc(S(=O)(=O)N2CCCCC2)cc1	Glucose-6-phosphate 1-dehydrogenase (Homo sapiens)	> 80 µM (inactive)
COc1ccc(OC)c2c1C(=O)C(Cl)=C(Cl)C2=O	Glucose-6-phosphate 1-dehydrogenase (Homo sapiens)	27 µM (inactive)

Lab note: next compound to report on.
Task: Need IC50 of Cc1ccc(NC(=O)c2cc(N3C(=O)C=CC3=O)ccc2N2CCOCC2)cc1 , thanks.
Result: 53 µM (inactive)

---

target: Heat shock protein HSP 90-alpha (Homo sapiens); assay type: functional, organism-based
Active and inactive are the calls of the source.
readoutLabel: AC50

Task: Need AC50 of COc1cc(N=Nc2ccc3ccccc3c2)ccc1O , thanks.
Result: 10.7 µM (active)

Task: Need AC50 of O=S(=O)(NC1CCCCCC1)c1ccc(Br)s1 , thanks.
Result: 17.2 µM (active)

Task: Need AC50 of CC1=C(O)C(=O)C=C2C1=CC=C1C2(C)CCC2(C)C3CC(C)(C(=O)O)CCC3(C)CCC12C (stereo not drawn) , thanks.
Result: 1.41 µM (active)
